All figures here come from the nanobody polyreactivity screen of Harvey et al. (2022).

experiment: yeast display, Sf9 membrane polyspecificity reagent, FACS + sequencing; frameworks hold sequencing errors

BIOSEQUENCE: QVQLVESGGGLVQAGGSLRLSCAASGIIFTFYGMGWYRQAPGKERELVAAIRTGGSTTYADSVKGRFTISRDNAKNTVYLQMNSLKPEDTAVYYCAAERYWVFHGTISYNYDYWGQGTQVTVSS
polyreactivity (PSR sort gate): low polyreactivity

BIOSEQUENCE: QVQLVESGGGLVQAGGSLRLSCAASGSIFDYYAMGWYRQAPGKERELVAAISWRGGRTYYADSVKGRFTISRDNAKNTVYLQMNSLKPEDTAVYYCAAYFQRSGFSFRLRGQGTQVTVSS
polyreactivity (PSR sort gate): high polyreactivity

BIOSEQUENCE: QVQLVESGGGLVQAGGSLRLSCAASGRTISYAMGWYRQAPGKERELVAAIRYRGGSTYYADSVKGRFTISRDNAKNTVYLQMNSLKPEDTADYYCDAQDSYTPPILFRRGYLRYDYWGQGTQVTVSS
polyreactivity (PSR sort gate): low polyreactivity

BIOSEQUENCE: QVQLVESGGGLVQAGGSLRLSCAASRSTFYYYAMGWYRQAPGKERELVATISWSGDSTYADSVKGRFTISRDNAKNTVYLQMNRLKPEDTAVYYCATSGDWWGFRYDYLGQGTQVTVSS
polyreactivity (PSR sort gate): low polyreactivity

BIOSEQUENCE: QVQLVESGGGLVQAGGSLRLSCAASGSIFSKNTMGWYRQAPGKEREFVARISVRGGSTYYADSVKGRFTISRDNAKNTVYLQMNSLKPEDTAVYYCNAAHTVTQNSRNSDYWGQGTQVTVSS
polyreactivity (PSR sort gate): high polyreactivity

---

experiment: yeast display, Sf9 membrane polyspecificity reagent, FACS + sequencing; frameworks hold sequencing errors
OUTCOME MEASURE: polyreactivity (PSR sort gate)

BIOSEQUENCE: QVQLVESGGGLVQAGGSLRLSCAASGRTFGYNAMGWYRQAPGKERELVAAITIGGSTNYADSVNGRFTISRDNAKNTVYLQMNSLKPEDTAVYYCAAYDTLLYWVEFYYWGQGTQVTVSS
REPORTED MEASUREMENT: low polyreactivity

BIOSEQUENCE: QVQLVESGGGLVQAGGSLRLSCAASGIIFLNYDIGWYRPAPGKERELVAAITTSGASTYYADSVKGRFTISRDNAKNTVYLQMNSLKREDTAVYYCAAVFRHARYRYDYWGQGTQVTVSS
REPORTED MEASUREMENT: high polyreactivity

BIOSEQUENCE: QVQHVDSGGGLVQAGGSLRLSFAASGFRFGINAMGWYRPAPGKERELVAAISKRTGSTYYADSVKGRFTSSRDNAKNTVYLQMNSLKPEDTAVYYCNKRVFPGYRLGGFWGQGTQVTVSS
REPORTED MEASUREMENT: high polyreactivity

BIOSEQUENCE: QLQLVESGGGLVQAGGSLRLSCAASGRTFSYNTMGWYRHAPGKERELVAAISWSGGSTYYADSVKGRFTISRDNAKNTVYLQMNSLKPEDSAVYYCNARSSGKGRSNAYYKGHGYWGQGTQVTVSS
REPORTED MEASUREMENT: high polyreactivity

BIOSEQUENCE: QVQLVESGGGLVQAGGSLRLSCAASGYTFLRYAMGWYRQAPGKERELVAAISRRGGRTYYADSVKGRFTISRDNAKNTVYLQMNSLKPEDTAVYYCAAVNSTQTIGLMDYWGQGTQVTVSS
REPORTED MEASUREMENT: high polyreactivity

BIOSEQUENCE: QVQLVESGGGLVQAGGSLRLSCAASGSIISYNAMGWYRQAPGKERELVAGIDLGDGTTYYADSVKGRFTISRDNAKNTVYLQMNSLKPDDTAVYYCNADIQIRPYGYAGTSTDEGLGYWGQGTQVTVSS
REPORTED MEASUREMENT: low polyreactivity

BIOSEQUENCE: QVQLVESGGGLVQAGGSLRLSCAASGFTFSQYAMGWYRQAPGKERELVAAISRSGGSTYYADSVKGRFTISRDNAKNTVYLQMNSLKPEDTAVYYCAAQPGRRAGRSGFDYWGQCTQVTVSS
REPORTED MEASUREMENT: high polyreactivity

BIOSEQUENCE: QVQLVESGGGLVQAGGSLRLSCAASGRIFYYNDMGWYRQAPGKERELVAAITWTDDGTYYADSVKGRFTISRDNAKNTVFLQMNSLKPEDTAVYYCAAESFYGFEYWGQGTQVTVSS
REPORTED MEASUREMENT: low polyreactivity

BIOSEQUENCE: QVQLVESGGGLVQAGGSLRLSSAASGRIFRGNEMGWYRQAPGKEREFVAAISWGGGSTYYADSVKGRFTISRDNAKKTVYLQMNSLKPEDTAVYYCAAGSPYAYNYWGQGTQVTVSS
REPORTED MEASUREMENT: high polyreactivity

BIOSEQUENCE: QVQLVESGGGLVQAGGSLRLSCAASGITFSDYAMGWYRQAPGKERELVAGITSGGSTYYADSVKGRFTISRDNAKNTVYLQMNSLKPEDTAVYYCAAVRRWKYDWGQGTQVTVSS
REPORTED MEASUREMENT: high polyreactivity

BIOSEQUENCE: QVQLVESGGGLVQAGGSLRLSCAASGGTFQAYAMGWYRQAPGKERELVAAISRSGGRTYYADSVKGRFTISRDNAKNTVYLQMNSLKPEDTAVYYCNAGAYYRNEMDYWGQGTQVTVSS
REPORTED MEASUREMENT: high polyreactivity
